Listing: melting point of selected compounds

Some compounds with known melting point results, for comparison:
# given-smiles, observed-value
measured = [
    ("CCS(=O)(=O)c1cc(-c2cccc(C#N)c2)cnc1-c1nc2cc(C(F)(F)F)ncc2n1C", "257 to 259 °C"),
    ("CCS(=O)(=O)c1cc(-c2ccc(F)cc2F)cnc1-c1nc2cc(C(F)(F)F)ncc2n1C", "223 to 225 °C"),
    ("CCS(=O)(=O)c1cc(-c2cc(Cl)cc(Cl)c2)cnc1-c1nc2cc(C(F)(F)F)ncc2n1C", "270 to 272 °C"),
    ("CCS(=O)(=O)c1cc(-c2cc(Cl)c(F)c(Cl)c2)cnc1-c1nc2cc(C(F)(F)F)ncc2n1C", "235 to 237 °C"),
]

Q: Name the recorded melting point of the item `CCS(=O)(=O)c1cc(-c2ccc(OC(F)(F)F)cc2)cnc1-c1nc2cc(C(F)(F)F)ncc2n1C` in your answer.
A: 181 to 183 °C

Q: Name the recorded melting point of the item `CCS(=O)(=O)c1cc(-c2ccccc2)cnc1-c1nc2cc(C(F)(F)F)ncc2n1C` in your answer.
A: 170 to 172 °C
